The measurements presented in this section are drawn from the Immune Epitope Database (IEDB).

# target or test system: HLA-A*26:01
# measurement notes: IEDB peptide-MHC binding, purified MHC/direct/fluorescence; filed as Kd, often an IC50 or EC50 that approximates it; bounds were set here for any values at or beyond the usual limits of such assays
# conditions: source organism: Campylobacter jejuni
In this section, each of the sequences is paired with its reported Kd.
property name: Kd

VKKLWGHLP :: ≥ 20 µM
VFKVKLHEI :: ≥ 20 µM

---

# target or test system: HLA-A*26:01
# measurement notes: IEDB peptide-MHC binding, purified MHC/direct/fluorescence; filed as Kd, often an IC50 or EC50 that approximates it; bounds were set here for any values at or beyond the usual limits of such assays
# conditions: source organism: Vibrio vulnificus CMCP6
property name: Kd

QSDIAGAIH :: ≥ 20 µM

---

# target or test system: HLA-A*01:01
# measurement notes: IEDB peptide-MHC binding, purified MHC/direct/fluorescence; filed as Kd, often an IC50 or EC50 that approximates it; bounds were set here for any values at or beyond the usual limits of such assays
# conditions: source organism: Mycobacterium tuberculosis str. Haarlem
pKd: −log10 of the molar value.
property name: pKd

FHARFVQAL :: ≤ 4.70

---

# target or test system: HLA-B*44:03
# measurement notes: IEDB peptide-MHC binding, purified MHC/competitive/radioactivity; filed as Kd, often an IC50 or EC50 that approximates it; bounds were set here for any values at or beyond the usual limits of such assays
# conditions: source organism: SARS coronavirus Tor2
In this section, each of the sequences is paired with its reported Kd.
property name: Kd (nM)

TEVVGNVIL :: 6820
FEHIVYGDF :: 13100
AEIVDTVSA :: 1640
AEVEWKFYDA :: 90.5
REAACCHLA :: 1910
CEKALKYLPI :: 1150
SEVAVLYQDV :: 104
QEAYYRARAG :: 411
QECNNMHLST :: 7120
WEVGKPRPPL :: 7210
GENAVIPKG :: 2230
IEELFYSYA :: 4600
FEIDKGIYQT :: 11800
HEFVDEFYAY :: 85.9
ADVFHLYLQY :: 147

---

# target or test system: HLA-B*07:02
# measurement notes: IEDB peptide-MHC binding, purified MHC/competitive/fluorescence; filed as Kd, often an IC50 or EC50 that approximates it; bounds were set here for any values at or beyond the usual limits of such assays
# conditions: source organism: Influenza A virus (A/parakeet/Narita/92A/98(H9N2))
property name: Kd (µM)

LPACVYGLAV :: 0.0394

---

# target or test system: HLA-B*15:17
# measurement notes: IEDB peptide-MHC binding, purified MHC/direct/fluorescence; filed as Kd, often an IC50 or EC50 that approximates it; bounds were set here for any values at or beyond the usual limits of such assays
# conditions: source organism: Marburg virus - Musoke, Kenya, 1980
pKd: −log10 of the molar value.
property name: pKd

KLDFIRNTK :: ≤ 4.70

---

# target or test system: HLA-A*01:01
# measurement notes: IEDB peptide-MHC binding, purified MHC/direct/fluorescence; filed as Kd, often an IC50 or EC50 that approximates it; bounds were set here for any values at or beyond the usual limits of such assays
# conditions: source organism: Mycobacterium tuberculosis
property name: Kd (nM)

PTTTYTLEY :: 14.2
FSIPVTFSY :: 316

---

# target or test system: HLA-C*07:02
# measurement notes: IEDB peptide-MHC binding, purified MHC/direct/fluorescence; filed as Kd, often an IC50 or EC50 that approximates it; bounds were set here for any values at or beyond the usual limits of such assays
# conditions: source organism: Homo sapiens
pKd: −log10 of the molar value.
property name: pKd

FLLENAAYL :: 6.45

---

# target or test system: HLA-A*01:01
# measurement notes: IEDB peptide-MHC binding, purified MHC/direct/fluorescence; filed as Kd, often an IC50 or EC50 that approximates it; bounds were set here for any values at or beyond the usual limits of such assays
# conditions: source organism: Salmonella enterica
property name: Kd

EHFYWGSVF :: ≥ 20 µM

---

# target or test system: HLA-B*44:02
# measurement notes: IEDB peptide-MHC binding, purified MHC/competitive/radioactivity; filed as Kd, often an IC50 or EC50 that approximates it; bounds were set here for any values at or beyond the usual limits of such assays
# conditions: source organism: Mammarenavirus choriomeningitidis
property name: Kd (nM)

AELLPDTTYL :: 561

---

# target or test system: HLA-A*68:01
# measurement notes: IEDB peptide-MHC binding, purified MHC/competitive/radioactivity; filed as Kd, often an IC50 or EC50 that approximates it; bounds were set here for any values at or beyond the usual limits of such assays
# conditions: source organism: Mammarenavirus lassaense
pKd: −log10 of the molar value.
property name: pKd

TLGSFTWFPH :: ≤ 4.59

---

# target or test system: HLA-A*24:03
# measurement notes: IEDB peptide-MHC binding, purified MHC/direct/fluorescence; filed as Kd, often an IC50 or EC50 that approximates it; bounds were set here for any values at or beyond the usual limits of such assays
# conditions: source organism: Giardia lamblia ATCC 50803
property name: Kd

VYAYPSGEK :: ≥ 20 µM
MTYLDGHPV :: ≥ 20 µM

---

# target or test system: HLA-A*02:11
# measurement notes: IEDB peptide-MHC binding, purified MHC/direct/fluorescence; filed as Kd, often an IC50 or EC50 that approximates it; bounds were set here for any values at or beyond the usual limits of such assays
# conditions: source organism: Ebola virus Yambio0403
pKd: −log10 of the molar value.
property name: pKd

RYEFTAPFI :: ≤ 4.70

---

# target or test system: HLA-B*15:01
# measurement notes: IEDB peptide-MHC binding, purified MHC/competitive/fluorescence; filed as Kd, often an IC50 or EC50 that approximates it; bounds were set here for any values at or beyond the usual limits of such assays
# conditions: source organism: Escherichia coli 536
property name: Kd

WLLLRQLPI :: ≥ 20 µM

---

# target or test system: HLA-A*32:01
# measurement notes: IEDB peptide-MHC binding, purified MHC/competitive/radioactivity; filed as Kd, often an IC50 or EC50 that approximates it; bounds were set here for any values at or beyond the usual limits of such assays
# conditions: source organism: Dengue virus 3 Martinique/1243/1999
property name: Kd

RQVEKVETW :: 79.6 nM

---

# target or test system: HLA-B*51:01
# measurement notes: IEDB peptide-MHC binding, purified MHC/competitive/fluorescence; filed as Kd, often an IC50 or EC50 that approximates it; bounds were set here for any values at or beyond the usual limits of such assays
# conditions: source organism: Orthohantavirus andesense
property name: Kd

SIKFKRKLM :: ≥ 20 µM

---

# target or test system: HLA-A*31:01
# measurement notes: IEDB peptide-MHC binding, purified MHC/direct/fluorescence; filed as Kd, often an IC50 or EC50 that approximates it; bounds were set here for any values at or beyond the usual limits of such assays
# conditions: source organism: West Nile virus
property name: Kd

HSRRSRRSL :: ≥ 20 µM

---

# target or test system: HLA-A*24:02
# measurement notes: IEDB peptide-MHC binding, purified MHC/competitive/fluorescence; filed as Kd, often an IC50 or EC50 that approximates it; bounds were set here for any values at or beyond the usual limits of such assays
# conditions: source organism: Corynebacterium glutamicum ATCC 13032
pKd: −log10 of the molar value.
property name: pKd

HLPELIWRS :: ≤ 4.70

---

# target or test system: HLA-B*40:02
# measurement notes: IEDB peptide-MHC binding, purified MHC/competitive/radioactivity; filed as Kd, often an IC50 or EC50 that approximates it; bounds were set here for any values at or beyond the usual limits of such assays
# conditions: source organism: Mammarenavirus guanaritoense
property name: Kd (µM)

LEREQIPTLI :: 0.559

---

# target or test system: HLA-A*02:01
# measurement notes: IEDB peptide-MHC binding, purified MHC/competitive/fluorescence; bounds were set here for any values at or beyond the usual limits of such assays
# conditions: source organism: Vaccinia virus WR
pIC50: −log10 of the molar value.
In this section, each of the sequences is paired with its reported pIC50.
property name: pIC50

GILPWTKIS :: 4.76
KSINVEYRF :: 5.46

---

# target or test system: HLA-B*53:01
# measurement notes: IEDB peptide-MHC binding, purified MHC/competitive/radioactivity; filed as Kd, often an IC50 or EC50 that approximates it; bounds were set here for any values at or beyond the usual limits of such assays
# conditions: source organism: Vaccinia virus WR
With a cut-off of 200 nM, any Kd strictly below it is called YES; any Kd meeting it or above is called NO.

HPDFCKNRRY :: NO
TPIFSDLLKY :: NO
SPLTLLIKTL :: NO
FPQHVITKDV :: YES
NPSILPSLI :: YES
LPLTSLVITY :: YES
EPLSPDTCL :: YES
NPIINTHSF :: YES
